All values here come from patent US9206245B2.

- target: HLA-B7 (Homo sapiens, UniProt P01889)
- Construct: transfected with the HLA-B7 gene; expressed in transfected cells; host or cells: T2 (TAP1/TAP2-deficient hybrid B and T lymphoblastoid cell line) transfected with the HLA-B7 gene (T2.B7, gift of Peter Cresswell)
- Sequence (P01889 25-362): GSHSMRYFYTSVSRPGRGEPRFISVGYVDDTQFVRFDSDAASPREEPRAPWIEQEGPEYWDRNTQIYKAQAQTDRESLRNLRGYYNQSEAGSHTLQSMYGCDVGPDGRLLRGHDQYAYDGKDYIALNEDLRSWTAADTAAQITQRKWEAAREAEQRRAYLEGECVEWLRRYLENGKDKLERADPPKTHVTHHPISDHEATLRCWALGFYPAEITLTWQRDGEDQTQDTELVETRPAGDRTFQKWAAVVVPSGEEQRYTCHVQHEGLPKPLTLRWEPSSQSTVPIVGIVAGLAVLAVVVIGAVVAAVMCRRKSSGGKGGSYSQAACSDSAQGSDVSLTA
- Sequence (P61769 21-119 partner): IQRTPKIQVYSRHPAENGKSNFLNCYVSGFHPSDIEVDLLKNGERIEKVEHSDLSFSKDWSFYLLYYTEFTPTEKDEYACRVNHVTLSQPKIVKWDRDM
- protocol.summary: T2-B7 binding assay: stabilization of HLA-B7 molecules on the surface of T2-B7 cells, flow cytometry
- condition.parameters: FIGS. 4 and 6, read-out: concentration required for a 50% increase in HLA-B7 expression
pEC50: −log10 of the molar value. Where no end group is shown, it is not given here.
measure: pEC50

sequence_text="SPQNSIRHNL [RS10, SPQNSIRHNL]" measured=~6.52

Reported pEC50 of SPANSIRHNL [RS10-3A, SPANSIRHNL] : ~7.30
